# TARGET_OR_SYSTEM: mouse TAAR1 (Mus musculus (Mouse), UniProt Q923Y8)
# Sequence (Q923Y8 whole entry): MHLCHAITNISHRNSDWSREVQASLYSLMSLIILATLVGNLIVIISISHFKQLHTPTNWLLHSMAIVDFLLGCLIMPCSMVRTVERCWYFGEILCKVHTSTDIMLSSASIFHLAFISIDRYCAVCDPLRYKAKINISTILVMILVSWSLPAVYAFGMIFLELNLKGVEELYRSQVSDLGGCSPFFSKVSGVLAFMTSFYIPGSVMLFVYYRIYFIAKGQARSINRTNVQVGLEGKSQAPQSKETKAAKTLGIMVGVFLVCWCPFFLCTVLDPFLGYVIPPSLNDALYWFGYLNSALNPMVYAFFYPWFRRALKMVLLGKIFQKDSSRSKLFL
# ASSAY_INFO: Radioligand binding assay on mouse TAAR1
# ASSAY_SETUP: mouse TAAR1, membranes of stably transfected HEK-293 cells; first value of mouse/rat pair
EXPERIMENTAL_ENDPOINT: Ki (µM)
Response body: numeric value in µM, unit text excluded.

Known Ki results, listed for orientation:
COMPOUND	Ki (µM)
CCCc1cc(C(=O)Nc2ccc3c(c2)CCC(N)C3)nn1CC(F)F (centres unmarked)	0.0132
NC1CCc2cc(C(=O)Nc3cnc(C(F)(F)F)cn3)ccc2C1 (centres unmarked)	0.021
NC1CCc2cc(C(=O)Nc3ccc(F)cc3)ccc2C1 (centres unmarked)	0.0569

stdin: Answer with the recorded Ki of CCOc1cc(C(=O)Nc2ccc3c(c2)CC[C@H](N)C3)ccn1 only.
stdout: 0.0187

stdin: Answer with the recorded Ki of CCc1n[nH]c(C(=O)Nc2ccc3c(c2)OC[C@H](N)C3)c1C only.
stdout: 0.0083

stdin: Answer with the recorded Ki of N[C@H]1CCc2cc(Nc3ncc(C(F)(F)F)cn3)ccc2C1 only.
stdout: 0.0213

---

# TARGET_OR_SYSTEM: UniProt Q923Y8
# ASSAY_INFO: Radioligand binding assay on mouse TAAR1
# ASSAY_SETUP: mouse TAAR1, membranes of stably transfected HEK-293 cells; first value of mouse/rat pair
# Protocol: Construction of TAAR Expression Plasmids and Stably Transfected Cell Lines For the construction of expression plasmids the coding sequences of human, rat and mouse TAAR 1 were amplified from genomic DNA essentially as described by Lindemann et al.. The Expand High Fidelity PCR System (Roche Diagnostics) was used with 1.5 mM Mg^2+ and purified PCR products were cloned into pCR2.1-TOPO cloning vector (Invitrogen) following the instructions of the manufacturer. […]
EXPERIMENTAL_ENDPOINT: Ki (µM)
Response body: numeric value in µM, unit text excluded.

Known Ki results, listed for orientation:
MOLECULE	DATA_VALUE
N#Cc1ccc(NC(=O)c2ccc3c(c2)CCC(N)C3)cc1 (stereo not drawn)	0.0044
CCCc1cc(C(=O)Nc2ccc3c(c2)OC[C@@H](N)C3)nn1CC(F)F	0.187

stdin: State, for UniProt Q923Y8, measured Ki of the molecule listed here: N[C@H]1CCc2cc(NC(=O)NCc3ccc(Cl)cn3)ccc2C1
stdout: 0.0355

---

# TARGET_OR_SYSTEM: mouse TAAR1 (Mus musculus (Mouse))
# ASSAY_INFO: Radioligand binding assay on mouse TAAR1
# ASSAY_SETUP: mouse TAAR1, membranes of stably transfected HEK-293 cells; first value of mouse/rat pair
EXPERIMENTAL_ENDPOINT: Ki (µM)
Response body: numeric value in µM, unit text excluded.

Known Ki results, listed for orientation:
MOLECULE	TARGET_OR_SYSTEM	EXPERIMENTAL_ENDPOINT	DATA_VALUE
N[C@@H]1CCc2cc(NC(=O)c3ccccc3Cl)ccc2C1 [Example 15]	mouse TAAR1 (Mus musculus (Mouse))	Ki	1.97
COc1cccc(NC(=O)Nc2ccc3c(c2)CC[C@H](N)C3)c1 [Example 67]	mouse TAAR1 (Mus musculus (Mouse))	Ki	0.0075
CCCc1cc(C(=O)Nc2ccc3c(c2)OC[C@H](N)C3)nn1CC(F)F [Example 10]	mouse TAAR1 (Mus musculus (Mouse))	Ki	0.0111

Now for a further molecule.
stdin: Answer with the recorded Ki of Cc1cc(C(=O)Nc2ccc3c(c2)OC[C@H](N)C3)nc(C(F)(F)F)n1 [Example 12] only.
stdout: 0.0581
